Biological target: cynomolgus BK1-receptor (Macaca fascicularis, UniProt Q3BCU0)
Construct: expressed in transfected cells; host or cells: CHO cells
Sequence (Q3BCU0 whole entry): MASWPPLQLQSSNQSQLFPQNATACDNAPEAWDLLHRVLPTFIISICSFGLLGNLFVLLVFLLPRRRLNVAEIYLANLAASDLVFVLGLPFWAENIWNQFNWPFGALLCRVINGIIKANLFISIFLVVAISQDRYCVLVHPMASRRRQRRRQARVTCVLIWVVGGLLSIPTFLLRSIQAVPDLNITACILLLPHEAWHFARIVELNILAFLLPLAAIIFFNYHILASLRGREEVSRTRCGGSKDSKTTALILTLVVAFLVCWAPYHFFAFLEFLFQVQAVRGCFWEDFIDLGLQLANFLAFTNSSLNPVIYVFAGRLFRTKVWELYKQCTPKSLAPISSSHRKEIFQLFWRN
Assay: cynoBK1-receptor binding assay
Details: CHO cell homogenate expressing cynomolgus BK1-receptor; radioligand kallidine (DesArg10,Leu9), [3,4-Prolyl-3,43H(N)]
pKi: −log10 of the molar value.
property: pKi

// solved cases for pKi follow
Lookup: pKi lookup needed for `O=C(N[C@@]1(C(=O)NCc2ccc(Nc3ccccc3C(F)(F)F)cc2)CCOC1)c1cn[nH]c(=O)c1` , thanks.
Found: 7.96

Lookup: pKi lookup needed for `O=C(N[C@@]1(C(=O)NCc2ccc(Nc3ccc(Cl)cc3C(F)(F)F)cc2F)CCOC1)c1cn[nH]c(=O)c1` , thanks.
Found: 7.52

Lookup: pKi lookup needed for `O=C(NC1(C(=O)NCc2ccc(Nc3ccc(Cl)cc3C(F)(F)F)cn2)CC1)c1cn[nH]c(=O)c1` , thanks.
Found: 8.29

Lookup: pKi lookup needed for `O=C(N[C@@]1(C(=O)NCc2ccc(Nc3ccc(Br)cc3C(F)(F)F)cc2)CCOC1)c1cn[nH]c(=O)c1` , thanks.
Found: 7.43

Lookup: pKi lookup needed for `O=C(N[C@@]1(C(=O)NCc2ccc(Nc3ccc(F)cc3C(F)(F)F)cc2)CCOC1)c1cn[nH]c(=O)c1` , thanks.
Found: 7.92

a = O=C(N[C@@]1(C(=O)NCc2ccc(Nc3ccc(F)cc3C(F)(F)F)cc2F)CCOC1)c1cn[nH]c(=O)c1
b = O=C(N[C@@]1(C(=O)NCc2ccc(Nc3ccc(Cl)cc3C(F)(F)F)cc2)CCOC1)c1cn[nH]c(=O)c1
Lookup: Name the one with the greater pKi value, either a or b as given. Indicate which entry you chose by stating its label.
Found: a

I = O=C(NC1(C(=O)NCc2ccc(Nc3ccc(F)cc3C(F)(F)F)cn2)CC1)c1cn[nH]c(=O)c1
II = O=C(N[C@@]1(C(=O)NCc2ccc(Nc3ccccc3C(F)(F)F)cc2F)CCOC1)c1cn[nH]c(=O)c1
Lookup: Could you tell me which of these two has the smaller pKi figure? First: I Second: II Indicate which entry you chose by stating its label.
Found: II

----------
System: human hepatocytes
Experiment: metabolic clearance in human hepatocytes
Format: in vitro ADME
Conditions: cryopreserved primary human hepatocytes, 5% human serum, 1 μM test compound, 6 h; well-stirred model, percentage of human hepatic blood flow
property: Clearance (% Qh)

Lookup: Clearance lookup needed for O=C(N[C@@]1(C(=O)NCc2ccc(Nc3ccc(F)cc3C(F)(F)F)cc2)CCOC1)c1cn[nH]c(=O)c1 [Example 3] , thanks.
Found: 7

a = O=C(N[C@@]1(C(=O)NCc2ccc(Nc3ccccc3C(F)(F)F)cc2)CCOC1)c1cn[nH]c(=O)c1 [Example 5]
b = O=C(N[C@@]1(C(=O)NCc2ccc(Nc3ccc(F)cc3C(F)(F)F)cc2F)CCOC1)c1cn[nH]c(=O)c1 [Example 6]
c = O=C(NC1(C(=O)NCc2ccc(Nc3ccc(F)cc3C(F)(F)F)cn2)CC1)c1cn[nH]c(=O)c1 [Example 1]
Lookup: Order by Clearance, ascending. Answer with the labels in sequence, matching the requested order.
Found: c, b, a
